# Test system: SK-MEL-5 melanoma
# Assay protocol: NCI-60 one-dose screen, 48 h
# Test settings: 10 µM unless noted
About 83,000 compounds went through this panel and 20% of them were active in at least one assay; those are over-represented in the sample as a whole. The source made the active and inactive calls. How the source made its calls: active means growth percent below 10; inactive means the rest.
Pick from 1 for active, -1 for inactive when you respond.

N#Cc1c(N2CCNCC2)nc2sc3cc(Cl)c(Cl)cc3n2c1=N
-1
Nc1cc2c3c(cccc3c1)C(=O)N(CCN1CCCC1)C2=O
1
COC(=O)[C@]12CC[C@@H](C)[C@H](C)[C@@H]1C1=CC[C@@H]3[C@@]4(C)C(C=O)=C[C@@](C)(COC(=O)c5ccco5)C4=CC[C@@]3(C)[C@]1(C)CC2
1
COc1cc(C2CC(=O)Nc3c2c(C)nn3-c2nc3ccccc3[nH]2)c(OC)c(OC)c1OC (stereo not drawn)
-1
Cc1nc2ccccc2n1CC1NC(=O)NC1=O (stereo not drawn)
-1

Short answer needed: outcome of this test for CC1O[C@@H](OC2[C@H](OC(=O)/C=C/c3ccc(O)c(O)c3)C(COC3O[C@H](C)C(O)C(O)[C@@H]3O)O[C@@H](OCCc3ccc(O)c(O)c3)[C@H]2O)[C@@H](O)C(O)[C@H]1O (stereo partly drawn) ? -1

Short answer needed: outcome of this test for COc1ccc(/C=N/C2=C(C#N)C(c3ccc(OC)cc3)c3ccc4ccccc4c3O2)cc1 (stereo not drawn) ? -1

Short answer needed: outcome of this test for "Cc1nn(-c2ccccc2)c(Cl)c1/C=C(/NC(=O)c1ccccc1)c1nc2ccccc2[nH]1" ? -1

Short answer needed: outcome of this test for "Cc1ccc(S(=O)(=O)N/N=C\c2cc(Cl)ccc2O)cc1" ? -1

Short answer needed: outcome of this test for "CCOC(=O)c1c(/C=C/C(=O)O)nc2ccccc2c1/C=C/c1ccccc1" ? -1

Short answer needed: outcome of this test for "N=c1sc(Cc2ccc(Cl)cc2)cn1CC(=O)c1ccc(F)cc1" ? -1

Short answer needed: outcome of this test for "c1cc2ccc3cc2cc1CNCCOCCNCc1ccc2ccc(cc2c1)CNCCOCCNC3" ? 1
